These data points were gathered from paper PMC7745062.

- Protocol: In vivo pharmacokinetics of 14·3HCl in rats
- Parameters: species or system Sprague–Dawley rats
- Test parameters: male, Sprague-Dawley, rat, plasma, po, 10 mg/kg
Quantity kind: Tmax (h)
Dear colleague, please return just the value in h, with no unit written.

Tmax lookup needed for Cc1ccc2c(c1)nc(/C=C/c1cccc3cccnc13)n2-c1cccc(OCCCN2CCN(C)CC2)c1.Cl [Compound 14·3HCl] , thanks.
6

----------
- Protocol: In vivo pharmacokinetics of 14·3HCl in rats
- Design: species or system Sprague–Dawley rats
- Test parameters: male, Sprague-Dawley, rat, plasma, iv, 2.5 mg/kg
Quantity kind: Tmax (min)
Dear colleague, please return just the value in min, with no unit written.

Tmax lookup needed for Cc1ccc2c(c1)nc(/C=C/c1cccc3cccnc13)n2-c1cccc(OCCCN2CCN(C)CC2)c1.Cl [Compound 14·3HCl] , thanks.
24

----------
- Protocol: Metabolic stability in rat liver microsomes
- Format: in vitro ADME
- Test parameters: RLM t1/2 (elimination half-life)
Quantity kind: half-life at 1.5 μmol/L (min)
Dear colleague, please return just the value in min, with no unit written.

half-life at 1.5 μmol/L lookup needed for Cc1ccc2c(c1)nc(/C=C/c1cccc3cccnc13)n2-c1ccccc1 , thanks.
17.4

----------
- Target system: PDE4D2 (86–413) (Homo sapiens, UniProt Q08499)
- Sequence (Q08499 388-715): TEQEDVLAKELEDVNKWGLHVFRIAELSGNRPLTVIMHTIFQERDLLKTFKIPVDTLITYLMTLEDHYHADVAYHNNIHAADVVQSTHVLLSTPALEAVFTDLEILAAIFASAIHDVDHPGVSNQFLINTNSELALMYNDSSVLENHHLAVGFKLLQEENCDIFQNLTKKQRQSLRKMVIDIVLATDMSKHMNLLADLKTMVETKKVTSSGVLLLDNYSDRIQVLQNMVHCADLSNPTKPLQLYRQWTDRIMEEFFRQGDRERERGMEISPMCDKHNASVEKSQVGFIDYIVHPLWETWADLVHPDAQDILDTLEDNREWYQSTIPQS
Quantity kind: IC50

IC50 lookup needed for Cc1ccc2c(c1)nc(/C=C/c1cccc3cccnc13)n2-c1cccc(OCCCN2CCN(C)CC2)c1.Cl [Compound 14·3HCl] , thanks.
> 10 µM

----------
- Target system: PDE1B (10–487) (Homo sapiens)
- Sequence (Q01064 10-487): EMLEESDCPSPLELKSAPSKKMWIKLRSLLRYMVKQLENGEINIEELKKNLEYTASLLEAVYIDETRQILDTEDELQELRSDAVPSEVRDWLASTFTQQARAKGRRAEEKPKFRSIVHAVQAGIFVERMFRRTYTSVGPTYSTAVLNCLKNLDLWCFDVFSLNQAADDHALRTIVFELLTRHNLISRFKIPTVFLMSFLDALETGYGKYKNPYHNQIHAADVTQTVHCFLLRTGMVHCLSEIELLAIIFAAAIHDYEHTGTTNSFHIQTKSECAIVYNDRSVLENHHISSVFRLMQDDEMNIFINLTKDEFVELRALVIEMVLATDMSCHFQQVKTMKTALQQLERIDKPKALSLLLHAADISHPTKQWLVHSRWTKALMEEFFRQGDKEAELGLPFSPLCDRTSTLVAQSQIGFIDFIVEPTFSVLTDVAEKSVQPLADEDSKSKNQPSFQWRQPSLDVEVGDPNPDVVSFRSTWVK
Quantity kind: IC50

IC50 lookup needed for Cc1ccc2c(c1)nc(/C=C/c1cccc3cccnc13)n2-c1cccc(OCCCN2CCN(C)CC2)c1.Cl [Compound 14·3HCl] , thanks.
> 10 µM

----------
- Target system: PDE5A1 (535–860) (Homo sapiens, UniProt O76074)
Quantity kind: IC50

IC50 lookup needed for Cc1ccc2c(c1)nc(/C=C/c1cccc3cccnc13)n2-c1cccc(OCCCN2CCN(C)CC2)c1.Cl [Compound 14·3HCl] , thanks.
> 10 µM

----------
- Protocol: In vivo pharmacokinetics of 14·3HCl in rats
- Parameters: species or system Sprague–Dawley rats
- Test parameters: male, Sprague-Dawley, rat, plasma, po, 10 mg/kg
Quantity kind: AUC(0-t) (ng·h/mL)
Dear colleague, please return just the value in ng·h/mL, with no unit written.

AUC(0-t) lookup needed for Cc1ccc2c(c1)nc(/C=C/c1cccc3cccnc13)n2-c1cccc(OCCCN2CCN(C)CC2)c1.Cl [Compound 14·3HCl] , thanks.
3310

----------
- Protocol: In vivo pharmacokinetics of 14·3HCl in rats
- Design: species or system Sprague–Dawley rats
- Test parameters: male, Sprague-Dawley, rat, plasma, po, 10 mg/kg
Quantity kind: half-life
The answer should read as a number with its unit following.

half-life lookup needed for Cc1ccc2c(c1)nc(/C=C/c1cccc3cccnc13)n2-c1cccc(OCCCN2CCN(C)CC2)c1.Cl [Compound 14·3HCl] , thanks.
5.2 h

----------
- Protocol: In vivo pharmacokinetics of 14·3HCl in rats
- Set-up: species or system Sprague–Dawley rats
- Test parameters: male, Sprague-Dawley, rat, plasma, iv, 2.5 mg/kg
Quantity kind: clearance

clearance lookup needed for Cc1ccc2c(c1)nc(/C=C/c1cccc3cccnc13)n2-c1cccc(OCCCN2CCN(C)CC2)c1.Cl [Compound 14·3HCl] , thanks.
23.3 mL/min/kg
